target: D(2) dopamine receptor (Homo sapiens); test: Binding affinity for human Dopamine receptor D2 expressed in CHO cells; type: cell-based
Sequence (P14416 whole entry): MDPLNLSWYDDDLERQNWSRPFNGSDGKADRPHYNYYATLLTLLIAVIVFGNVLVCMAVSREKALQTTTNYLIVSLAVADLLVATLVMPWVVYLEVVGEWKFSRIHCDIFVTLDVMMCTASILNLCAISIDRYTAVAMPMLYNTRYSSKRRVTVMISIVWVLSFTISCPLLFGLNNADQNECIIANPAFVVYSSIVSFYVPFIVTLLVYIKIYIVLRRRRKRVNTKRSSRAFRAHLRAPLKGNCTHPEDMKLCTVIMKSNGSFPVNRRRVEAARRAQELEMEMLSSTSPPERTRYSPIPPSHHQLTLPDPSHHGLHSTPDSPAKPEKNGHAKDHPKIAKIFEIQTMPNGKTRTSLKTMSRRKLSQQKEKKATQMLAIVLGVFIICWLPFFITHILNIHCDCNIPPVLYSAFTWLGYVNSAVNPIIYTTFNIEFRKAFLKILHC
Listing of entries alongside the reported Ki.
READOUT_TYPE: Ki (µM)

1) Cl.N#Cc1ccc2c(c1)CCN(CC[C@H]1CC[C@H](NC(=O)c3cc4ccccc4[nH]3)CC1)C2 : 0.794
2) N#Cc1ccc2c(c1)CCN(CC[C@H]1CC[C@H](NC(=O)c3ccc4ccccc4c3)CC1)C2 : 1.58
3) N#Cc1ccc2c(c1)CCN(CC[C@H]1CC[C@H](NC(=O)/C=C/c3ccc(F)cc3)CC1)C2 : 0.2
4) N#Cc1ccc2c(c1)CN(CC[C@H]1CC[C@H](NC(=O)/C=C/c3c[nH]c4ccccc34)CC1)CC2 : 0.126
5) N#Cc1ccc2c(c1)CN(CCCCNC(=O)/C=C/c1c[nH]c3ccccc13)CC2 : 0.794
6) N#Cc1ccc2c(c1)CCN(CC[C@H]1CC[C@H](NC(=O)c3cccc4ccccc34)CC1)C2 : 0.398
7) N#Cc1ccc2c(c1)CCN(CC[C@H]1CC[C@H](NC(=O)/C=C/c3ccccc3)CC1)C2 : 0.2
8) CS(=O)(=O)c1cccc(/C=C/C(=O)N[C@H]2CC[C@H](CCN3CCc4cc(C#N)ccc4C3)CC2)c1.Cl : 0.316
9) N#Cc1ccc2c(c1)CN(CC[C@H]1CC[C@H](NC(=O)/C=C/c3ccccc3)CC1)CC2 : 0.158

###

pKi: −log10 of the molar value.
// pKi collected for D(3) dopamine receptor (Homo sapiens)
READOUT_TYPE: pKi

1) N#Cc1ccc2c(c1)CCN(CC[C@H]1CC[C@H](NC(=O)c3ccc4ccccc4c3)CC1)C2 : 8.00
2) N#Cc1ccc2c(c1)CN(CC[C@H]1CC[C@H](NC(=O)/C=C/c3ccccc3)CC1)CC2 : 8.90
3) N#Cc1ccc2c(c1)CCN(CC[C@H]1CC[C@H](NC(=O)/C=C/c3ccccc3)CC1)C2 : 8.50

###

assay: Oral bioavailability in rat; conditions: in vivo
READOUT_TYPE: bioavailability (%)

1) Cl.N#Cc1ccc2c(c1)CN(CC[C@H]1CC[C@H](NC(=O)c3cc4ccccc4[nH]3)CC1)CC2 : 43
2) CS(=O)(=O)c1cccc(/C=C/C(=O)N[C@H]2CC[C@H](CCN3CCc4cc(C#N)ccc4C3)CC2)c1.Cl : 45

###

Listing of entries alongside the reported Ki.
target: UniProtKB P28222
Sequence (P28222 whole entry): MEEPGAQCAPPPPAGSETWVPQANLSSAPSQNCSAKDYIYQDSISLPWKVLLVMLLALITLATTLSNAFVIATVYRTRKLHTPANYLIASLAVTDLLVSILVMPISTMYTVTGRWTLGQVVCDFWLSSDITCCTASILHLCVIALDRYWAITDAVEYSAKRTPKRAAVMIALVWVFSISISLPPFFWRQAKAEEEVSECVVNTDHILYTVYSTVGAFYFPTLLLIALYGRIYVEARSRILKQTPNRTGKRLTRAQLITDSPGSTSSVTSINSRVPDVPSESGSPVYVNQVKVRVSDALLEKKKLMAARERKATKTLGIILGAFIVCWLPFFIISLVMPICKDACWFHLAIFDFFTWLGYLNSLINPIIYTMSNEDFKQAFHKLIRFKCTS
READOUT_TYPE: Ki (nM)

1. Cl.N#Cc1ccc2c(c1)CN(CC[C@H]1CC[C@H](NC(=O)c3cc4ccccc4[nH]3)CC1)CC2 : 631
2. N#Cc1ccc2c(c1)CN(CCCCNC(=O)/C=C/c1c[nH]c3ccccc13)CC2 : 158
3. N#Cc1ccc2c(c1)CN(CC[C@H]1CC[C@H](NC(=O)/C=C/c3ccccc3)CC1)CC2 : 158
4. O=C(/C=C/c1c[nH]c2ccccc12)NCCCCN1CCc2ccc(OS(=O)(=O)C(F)(F)F)cc2C1 : 100

###

pKi: −log10 of the molar value.
// pKi collected for 5-hydroxytryptamine receptor 1D (Homo sapiens, UniProt P28221)
READOUT_TYPE: pKi

1. O=C(/C=C/c1c[nH]c2ccccc12)NCCCCN1CCc2ccc(OS(=O)(=O)C(F)(F)F)cc2C1 : 7.20
2. CS(=O)(=O)c1cccc(/C=C/C(=O)N[C@H]2CC[C@H](CCN3CCc4cc(C#N)ccc4C3)CC2)c1.Cl : 5.40
3. N#Cc1ccc2c(c1)CCN(CC[C@H]1CC[C@H](NC(=O)c3ccc4ccccc4c3)CC1)C2 : 7.00
4. N#Cc1ccc2c(c1)CCN(CC[C@H]1CC[C@H](NC(=O)/C=C/c3ccc(F)cc3)CC1)C2 : 6.20

###

assay: Compound was evaluated for Blood clearance in rat; conditions: whole blood
READOUT_TYPE: clearance (mL/min/kg)

1) Cl.N#Cc1ccc2c(c1)CN(CC[C@H]1CC[C@H](NC(=O)c3cc4ccccc4[nH]3)CC1)CC2 : 6
